Experiment: In vivo pharmacokinetic evaluation in mice
Conditions: mouse, plasma, po; ICR mice, ig, dose 3 mg/kg; read-out: MRT(0-24)
Method: ICR mice of 18-22 g were randomized into 4 groups of 9 mice after 3-5 days of acclimatization. […] The test animals (ICR mice) were fasted from 12 h pre-dose to 4 h post-dose, and given free access to water throughout the study. […]
Overview of recorded MRT last for various compounds
measured.metric: MRT last (h)

1) Cc1cc(-n2nc3c(c2-n2ccn(-c4ccc5c(c4)C4(CC4)C(=O)N5C4CC4)c2=O)[C@H](C)N(C(=O)c2cc4cc([C@H]5CCOC(C)(C)C5)ccc4n2[C@@]2(c4noc(=O)[nH]4)C[C@@H]2C)CC3)cc(C)c1F = 8.42
2) Cc1cc(-n2nc3c(c2-n2ccn(-c4ccc5c(c4F)N(C)C(=O)C54CC4)c2=O)[C@H](C)N(C(=O)c2cc4cc([C@H]5CCOC(C)(C)C5)ccc4n2[C@@]2(c4noc(=O)[nH]4)C[C@@H]2C)CC3)cc(C)c1F = 10.1
3) Cc1cc(-n2nc3c(c2-n2ccn(-c4ccc5c(c4)N(C)C(=O)C54CC4)c2=O)[C@H](C)N(C(=O)c2cc4cc(C5CCOC(C)(C)C5)ccc4n2[C@@]2(c4noc(=O)[nH]4)C[C@@H]2C)CC3)cc(C)c1F (single isomer, unassigned) = 7.8
4) C[C@H]1c2c(nn(-c3ccc(F)c(C4CC4)c3)c2-n2ccn(-c3ccc4c(c3)N(C)C(=O)C43CC3)c2=O)CCN1C(=O)c1cc2cc([C@H]3CCOC(C)(C)C3)ccc2n1[C@@]1(c2noc(=O)[nH]2)C[C@@H]1C = 8.36
5) [2H]C([2H])([2H])N1C(=O)C2(CC2)c2cc(-n3ccn(-c4c5c(nn4-c4cc(C)c(F)c(C)c4)CCN(C(=O)c4cc6cc([C@H]7CCOC(C)(C)C7)ccc6n4[C@@]4(c6noc(=O)[nH]6)C[C@@H]4C)[C@H]5C)c3=O)ccc21 = 7.73
